target: UniProt:P10635; experiment: Inhibition of CYP2D6 (unknown origin); assay type: ADME
Sequence (P10635 whole entry): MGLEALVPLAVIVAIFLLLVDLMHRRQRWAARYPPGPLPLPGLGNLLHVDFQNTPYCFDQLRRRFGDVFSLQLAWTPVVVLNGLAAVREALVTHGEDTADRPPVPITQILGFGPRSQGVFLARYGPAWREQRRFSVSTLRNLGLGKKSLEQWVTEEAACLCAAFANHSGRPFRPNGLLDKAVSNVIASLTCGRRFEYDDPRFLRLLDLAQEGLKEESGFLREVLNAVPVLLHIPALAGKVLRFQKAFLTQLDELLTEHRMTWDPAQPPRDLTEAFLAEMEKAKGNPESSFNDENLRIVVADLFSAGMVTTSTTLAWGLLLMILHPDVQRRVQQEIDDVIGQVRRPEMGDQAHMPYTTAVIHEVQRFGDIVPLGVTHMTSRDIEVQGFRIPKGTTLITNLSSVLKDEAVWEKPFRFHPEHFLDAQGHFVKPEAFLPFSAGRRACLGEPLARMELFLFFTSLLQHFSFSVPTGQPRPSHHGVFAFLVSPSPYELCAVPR
metric: IC50

[[record]]
smiles_repr = "C[C@]1(F)CCC[C@H]1Nc1c(C(N)=O)cnn2cccc12"
measured_result = "> 20 µM"


---

Reported Papp values are given for each entry in this list.
assay: Permeability by PAMPA method; format: ADME; settings: read-out: permeability
metric: Papp (×10⁻⁶ cm/s)

[[record]]
smiles_repr = "C[C@@H](Nc1c(C(N)=O)cnn2cccc12)C(C)(C)C"
metric = "Papp"
measured_result = 86.2

[[record]]
smiles_repr = "C[C@]1(F)CCC[C@H]1Nc1c(C(N)=O)cnn2cccc12"
metric = "Papp"
measured_result = 76.6


---

assay: AUC in balb/c mouse at 10 mg/kg, po; type: ADME, organism-based; set-up: dose 10 mg/kg, route oral; conditions: plasma
metric: AUC (µM·h)

[[record]]
smiles_repr = "C[C@]1(F)CCC[C@H]1Nc1c(C(N)=O)cnn2cccc12"
measured_result = 5.7


---

test: Tmax in balb/c mouse at 10 mg/kg, po; assay type: ADME, organism-based; design: dose 10 mg/kg, route oral; conditions: in vivo
metric: Tmax (min)

[[record]]
smiles_repr = "C[C@]1(F)CCC[C@H]1Nc1c(C(N)=O)cnn2cccc12"
metric = "Tmax"
output_unit = "min"
measured_result = 30


---

Reported pIC50 values are given for each entry in this list.
biological target: Tyrosine-protein kinase JAK2 (Homo sapiens, UniProt O60674)
Sequence (O60674 whole entry): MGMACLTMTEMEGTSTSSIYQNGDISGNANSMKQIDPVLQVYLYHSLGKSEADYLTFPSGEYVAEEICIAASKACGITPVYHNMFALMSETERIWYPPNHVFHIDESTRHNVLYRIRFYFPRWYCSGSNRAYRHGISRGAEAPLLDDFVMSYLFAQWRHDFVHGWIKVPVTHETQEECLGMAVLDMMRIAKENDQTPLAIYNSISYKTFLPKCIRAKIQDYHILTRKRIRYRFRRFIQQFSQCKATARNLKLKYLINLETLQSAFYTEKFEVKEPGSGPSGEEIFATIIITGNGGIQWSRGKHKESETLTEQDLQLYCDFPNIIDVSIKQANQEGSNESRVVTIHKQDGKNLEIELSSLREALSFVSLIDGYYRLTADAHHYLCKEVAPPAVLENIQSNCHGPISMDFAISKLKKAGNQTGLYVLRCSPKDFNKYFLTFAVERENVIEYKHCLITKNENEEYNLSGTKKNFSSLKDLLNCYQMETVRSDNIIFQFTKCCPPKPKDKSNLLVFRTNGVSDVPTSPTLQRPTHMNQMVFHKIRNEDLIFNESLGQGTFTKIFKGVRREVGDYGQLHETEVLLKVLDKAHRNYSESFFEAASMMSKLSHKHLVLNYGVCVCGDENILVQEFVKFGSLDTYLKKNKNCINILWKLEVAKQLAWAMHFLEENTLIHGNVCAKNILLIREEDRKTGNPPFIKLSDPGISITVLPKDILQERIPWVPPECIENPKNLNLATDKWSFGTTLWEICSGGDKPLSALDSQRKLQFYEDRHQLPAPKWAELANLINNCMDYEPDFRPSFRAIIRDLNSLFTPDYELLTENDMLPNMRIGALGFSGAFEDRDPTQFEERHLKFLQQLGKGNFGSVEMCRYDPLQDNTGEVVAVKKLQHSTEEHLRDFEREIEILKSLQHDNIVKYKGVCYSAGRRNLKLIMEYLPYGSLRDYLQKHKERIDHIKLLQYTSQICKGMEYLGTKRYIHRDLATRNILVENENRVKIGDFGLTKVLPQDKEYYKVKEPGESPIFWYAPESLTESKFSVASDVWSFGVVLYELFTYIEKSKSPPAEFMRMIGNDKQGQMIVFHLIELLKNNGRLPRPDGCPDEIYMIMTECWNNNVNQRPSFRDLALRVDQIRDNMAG
pIC50: −log10 of the molar value.
metric: pIC50

[[record]]
compound = "CC1(C)[C@@H](O)CC[C@H]1Nc1c(C(N)=O)cnn2cccc12 (racemic)"
measured_result = 6.89

[[record]]
compound = "C[C@@]1(F)CCC[C@@H]1Nc1c(C(N)=O)cnn2cccc12"
measured_result = 6.89

[[record]]
compound = "CC1(C)CCC[C@@H]1Nc1c(C(N)=O)cnn2cccc12"
measured_result = 6.89

[[record]]
compound = "CC1(C)[C@@H](N)CC[C@H]1Nc1c(C(N)=O)cnn2cccc12 (racemic)"
measured_result = 6.89

[[record]]
compound = "C[C@]1(CO)CCC[C@H]1Nc1c(C(N)=O)cnn2cccc12 (racemic)"
measured_result = 6.96

[[record]]
compound = "CC1(C)[C@H](Nc2c(C(N)=O)cnn3cccc23)CC[C@]1(C)N"
measured_result = 7.21

[[record]]
compound = "CC1(C)C[C@](C)(O)C[C@H]1Nc1c(C(N)=O)cnn2cccc12 (racemic)"
measured_result = 7.21

